# testSummary: Evaluated for pharmacokinetic parameter urine recovery in rat at the dose 50 mg/kg (0-24 hr)
# Type: ADME, organism-based
# Parameters: dose 50 mg/kg
# experimentalSetup: read-out: UR
metricName: dose excreted
Give your result as the value with the unit written after it.

Q. Entry Nc1nc(/C(=N/O)C(=O)NC2C(=O)N3C(C(=O)O)=C(/C=C\c4csnn4)CSC23)cs1 (stereo unspecified) : reported dose excreted = ?
A. 3.5%

###

# Test system: Morganella morganii
# testSummary: Antibacterial activity against Morganella morganii IID 602 was determined
# Type: functional
metricName: MIC (µg/mL)
Form entry: value (µg/mL) — number only.

// worked examples, MIC included
>  <molecule>
Cc1nnsc1/C=C\C1=C(C(=O)O)N2C(=O)C(NC(=O)/C(=N\O)c3csc(N)n3)C2SC1 (stereo not given)

>  <readoutUnit>
µg/mL

>  <MIC>
0.05

$$$$
>  <molecule>
CO/N=C(\C(=O)NC1C(=O)N2C(C(=O)O)=C(/C=C\c3csnn3)CSC12)c1csc(N)n1 (stereo not given)

>  <readoutUnit>
µg/mL

>  <MIC>
0.1

$$$$
>  <molecule>
CO/N=C(\C(=O)NC1C(=O)N2C(C(=O)O)=C(/C=C\c3scnc3C)CSC12)c1csc(N)n1 (stereo not given)

>  <readoutUnit>
µg/mL

>  <MIC>
0.2

$$$$
>  <molecule>
C=CC1=C(C(=O)O)N2C(=O)[C@@H](NC(=O)/C(=N\O)c3csc(N)n3)[C@H]2SC1 [CEFDINIR]

>  <readoutUnit>
µg/mL

>  <MIC>
6.25

$$$$

# next molecule below
Q. Entry Cc1snnc1/C=C\C1=C(C(=O)O)N2C(=O)C(NC(=O)/C(=N\O)c3csc(N)n3)C2SC1 (stereo not given) : reported MIC = ?
A. 0.05

###

Cmax reference
# testSummary: Evaluated for pharmacokinetic parameter Cmax in mouse at the dose 20 mg/kg
# Format: ADME, organism-based
# Design: dose 20 mg/kg
# experimentalSetup: in vivo
Form entry: value (ng/mL) — number only.

// worked examples, Cmax included
>  <molecule>
CC(C)(C)C(=O)OCOC(=O)C1=C(/C=C\c2csnn2)CSC2C(NC(=O)/C(=N\O)c3csc(N)n3)C(=O)N12 (stereo not drawn)

>  <Cmax / ng/mL>
20500

$$$$
>  <molecule>
Nc1nc(/C(=N/O)C(=O)NC2C(=O)N3C(C(=O)O)=C(/C=C\c4csnn4)CSC23)cs1 (stereo not drawn)

>  <Cmax / ng/mL>
1500

$$$$

# next molecule below
Q. Entry C=CC1=C(C(=O)O)N2C(=O)[C@@H](NC(=O)/C(=N\O)c3csc(N)n3)[C@H]2SC1 [CEFDINIR] : reported Cmax = ?
A. 2500

###

# testSummary: Evaluated for pharmacokinetic parameter tmax in mouse at the dose 20 mg/kg
# Format: ADME, organism-based
# Design: dose 20 mg/kg
# experimentalSetup: in vivo
Tmax reference
Form entry: value (min) — number only.

>  <compound>
C=CC1=C(C(=O)O)N2C(=O)[C@@H](NC(=O)/C(=N\O)c3csc(N)n3)[C@H]2SC1

>  <Tmax (min)>
60

$$$$

# next compound below
Q. Entry CC(C)(C)C(=O)OCOC(=O)C1=C(/C=C\c2csnn2)CSC2C(NC(=O)/C(=N\O)c3csc(N)n3)C(=O)N12 (configuration not stated) : reported Tmax = ?
A. 30
